- Assay Notes: Specific activity of purified CHI, absorbance decrease at 384 nm, hesperetin chalcone; note: unit not given here
- Assay type: biochemical
- Assay Setup: purified CHI in 50 mM PBS, 100 μM substrate, 25° C.
Form field: Specific activity, Hesperetin chalcone (one value per entry).
Number, no unit, nothing else.

CHI3: Chalcone isomerase from Clostridium sp. JN500901, access no. WP_119972745.1 (protein, Clostridium sp. JN500901) SIEFKPMRSLIYVDVVKEDYRHMLKHWLYYHHIPDSISQFGPYVTKYAFYPALPTPPDGERFGTHRMQLTEHYWLVNPLTPEFKNKTMTEYFPVDVLKWQGNVPDDNEVAILEGKETEKVESGDAARSTGGDNGMPPFIWAFVPISWEEDLKGEGRSMEDGPNYRWQFVMKYPDGVPMEEGDKWFYKEVIPKFQDSPDVTRILTSKIIQNINDCPYQRIVEMWFNCPSGWHRAAVEKAREIKKPSWAKYDEFPYLKPKFEISSLFLTDIAESDNYTQYRGFIPMR; 12.8

Any idea what its Specific activity, Hesperetin chalcone is? The molecule is CHIera Mut1: Chalcone isomerase variant 1 from Eubacterium ramulus, genetically engineered (protein, listed as Eubacterium ramulus) MADFKFEPMRSLIYVDCVSEDYRPKLQRWIYKVHIPDSISKFEPYVTKYAFYPSFPIPPQGDRFGYARMQLTEHHWLVSELDPRLEINAIAETFPMDVLVWQGQIPAAAHTDAQIDSDGDAGRAAGKSNNAEGNPFIFAFLPMWWEKDLKGKGRTIEDGANYRFNMTIGFPEGVDKAEGEKWLFEKVVPILQAAPECTRVLASAVKKDINGCVMDWVLEIWFENQSGWYKVMVDDMKALEKPSWAQQDAFPFLKPYHNVCSAAVADYTPSNNLANYRGYITMR
93.2
